# Tested on: Plasmodium falciparum
# assay-details: Calibr Malaria Delayed Death Assay SOP
# Format: functional, organism-based
# Set-up: scale not given: in the data most compounds retested in dose-response had high values
# run-conditions: concentration 4.99e-06 (unit not given; other assays of the set use mol/L)
Hit rate of the full screen: of about 38,000 compounds, about 1,200 (3.2%) showed an effect of 50% or more. The median lay at about -58%. For the sample, strong results were picked, then their nearest neighbours and some compounds at random.
endpoint-name: Percent Effect

>>> df
                               molecule  result
0  CC(C)(C)C(=O)NCCNCc1ccc(Cl)c2cccnc12  76.99%

## Task Reported Percent Effect for Cc1nnc2n1CCN(CCCS(=O)(=O)c1ccccc1)C2 : what is it?
## Result -71.81%

## Task Reported Percent Effect for Cc1noc(C)c1CN1C[C@@H]2CCCO[C@@H]2[C@H](Nc2ccccn2)C1.O=C(O)C(F)(F)F.O=C(O)C(F)(F)F : what is it?
## Result -37.64%

## Task Reported Percent Effect for CC(C)(O)CSCCNCc1ccc(Cl)c2cccnc12 : what is it?
## Result 66.02%

## Task Reported Percent Effect for CC(C)(O)CSCCNC(=O)c1ccc(F)cc1Cl : what is it?
## Result -61.07%

## Task Reported Percent Effect for Cn1cnc2c1CCN(Cc1ccc(Cl)c3cccnc13)C2 : what is it?
## Result -32.7%

====

Quick reference: Percent Effect of the listed items.
# Tested on: Plasmodium falciparum
# assay-details: Calibr Malaria Delayed Death Assay SOP
# Assay type: functional, organism-based
# Set-up: scale not given: in the data most compounds retested in dose-response had high values
# run-conditions: concentration 4.99e-06 (unit not given; other assays of the set use mol/L)
The whole screen tested about 38,000 compounds, of which about 1,200 (3.2%) showed an effect of 50% or more. The median lay at about -58%. This is one part of a sample in which strong results are shown more often than they occur.
Response body: numeric value in %, unit text excluded.

Check out these entries, answers already filled in.
In [3]: df
Out[3]:
                                   molecule  quantitative_result
0  COc1ccc(C[C@H]2CN(c3nnc(C)s3)CC[C@H]2OC)cc1.O=C(O)C(F)(F)F               -6.177
1  CC(NCC(=O)Nc1ccc(N2CCCCCC2)cc1)c1cccs1 (configuration not stated)                21.94
2  CC(C)c1nn(C)c(Cl)c1CNCC(O)c1cccc(F)c1.Cl (configuration not stated)                81.83
3  COc1ccc(C[C@H]2CN(c3nnc(C)s3)CC[C@@H]2OC)cc1.O=C(O)C(F)(F)F               -18.37
4                 CSCc1cc(F)ccc1CNCc1ccncc1               -80.12

## Task Record CN(C)C1Cc2ccccc2N(S(=O)(=O)c2cccc(C#N)c2)C1 (configuration not stated) : what is its Percent Effect with Plasmodium falciparum?
## Result 75.93

## Task Record Fc1cnc(N2CCCC3(CCN(Cc4nccs4)C3)C2)nc1 (configuration not stated) : what is its Percent Effect with Plasmodium falciparum?
## Result 21.75

====

# Test system: Plasmodium falciparum
# assay-details: Calibr Malaria Delayed Death Assay SOP
# Type: functional, organism-based
# Design: scale not given: in the data most compounds retested in dose-response had high values
# run-conditions: concentration 4.99e-06 (unit not given; other assays of the set use mol/L)
The campaign covered roughly 38,000 compounds. About 1,200 (3.2%) showed an effect of 50% or more. The median lay at about -58%. The entries come from a sample that favours strong results as a whole.
endpoint-name: Percent Effect (%)
Response body: numeric value in %, unit text excluded.

                                   compound        measured_target  quantitative_result
0  CC(C)n1cnnc1CN(C)C(=O)C1CCCN(C2CCN(C)CC2)C1 (centres undefined)  Plasmodium falciparum               -93.39
1  Cc1ccc(OCC(C)NS(=O)(=O)Cc2ccon2)cc1 (centres undefined)  Plasmodium falciparum               -50.51
2  Fc1ccc(CN2C[C@@H]3OCCN(CCN4CCCC4)[C@@H]3C2)cc1.O=C(O)C(F)(F)F.O=C(O)C(F)(F)F.O=C(O)C(F)(F)F  Plasmodium falciparum               -79.23
3  COCC(O)CN1CCC(=O)N(CC(=O)C(C)(C)C)Cc2ccccc21 (centres undefined)  Plasmodium falciparum                3.723

## Task Reported Percent Effect for COc1ccc(CN2C[C@@H]3OCCN(CCN4CCCC4)[C@@H]3C2)cc1.O=C(O)C(F)(F)F.O=C(O)C(F)(F)F.O=C(O)C(F)(F)F : what is it?
## Result 62.07

## Task Reported Percent Effect for CN(CCn1cnc(-c2ccccc2)c1-c1ncc[nH]1)S(C)(=O)=O : what is it?
## Result -10.43

## Task Reported Percent Effect for COc1c(CNCCc2c[nH]c3ccccc23)c(C)nn1C : what is it?
## Result -66.3

## Task Reported Percent Effect for COc1c(CNC2CCc3ccccc32)c(C)nn1C (centres undefined) : what is it?
## Result 30.71

## Task Reported Percent Effect for COc1ncccc1CN1C[C@@H]2OCCN(CCN(C)C)[C@@H]2C1.O=C(O)C(F)(F)F.O=C(O)C(F)(F)F.O=C(O)C(F)(F)F : what is it?
## Result -6.564

====

# Tested on: Plasmodium falciparum
# assay-details: Calibr Malaria Delayed Death Assay SOP
# Format: functional, organism-based
# Parameters: scale not given: in the data most compounds retested in dose-response had high values
# run-conditions: concentration 4.99e-06 (unit not given; other assays of the set use mol/L)
Out of some 38,000 compounds screened, about 1,200 (3.2%) showed an effect of 50% or more. The median lay at about -58%. The sample as a whole holds a higher share of strong results than the screen did.
endpoint-name: Percent Effect (%)
Response body: numeric value in %, unit text excluded.

## Task Record CNC(=O)Cn1c(CO)cnc1SCc1ccccc1Cl : what is its Percent Effect with Plasmodium falciparum?
## Result -84

====

# Tested on: Plasmodium falciparum
# assay-details: Calibr Malaria Delayed Death Assay SOP
# Format: functional, organism-based
# Parameters: scale not given: in the data most compounds retested in dose-response had high values
# run-conditions: concentration 4.99e-06 (unit not given; other assays of the set use mol/L)
The campaign covered roughly 38,000 compounds. About 1,200 (3.2%) showed an effect of 50% or more. The median lay at about -58%. The sample as a whole holds a higher share of strong results than the screen did.
endpoint-name: Percent Effect (%)
Response body: numeric value in %, unit text excluded.

>>> print(df.to_string())
                                 compound  quantitative_result
0  CC(C)Cc1cc(NC(=O)c2cc(Cl)c[nH]2)n(C)n1                10.73

## Task Reported Percent Effect for O=C(NCc1ccco1)[C@H]1CC[C@@H]2[C@@H](CCN2Cc2cccnc2)O1.O=C(O)C(F)(F)F.O=C(O)C(F)(F)F : what is it?
## Result -37.9

## Task Reported Percent Effect for COc1ccccc1OC1CN(C(=O)C(c2ccc(F)cc2)N(C)C)C1 (configuration not stated) : what is it?
## Result 0.4692

## Task Reported Percent Effect for Cc1ccc2nc(C3CCCN3C(=O)c3cc(=O)[nH]c(=O)[nH]3)[nH]c2c1 (configuration not stated) : what is it?
## Result -24.73

## Task Reported Percent Effect for CN(CCO)CC1COCCN1C(=O)C1CCCCC1.O=CO (configuration not stated) : what is it?
## Result -110.9

## Task Reported Percent Effect for CC(=O)N1CCO[C@@H]2CN(Cc3ccccc3Cl)C[C@@H]2C1.O=C(O)C(F)(F)F : what is it?
## Result -110.8

## Task Reported Percent Effect for N#Cc1cccc(CN2CC[C@@H]3CO[C@@H](CN4CCCC4)[C@@H]3C2)c1.O=C(O)C(F)(F)F.O=C(O)C(F)(F)F : what is it?
## Result 9.568

## Task Reported Percent Effect for CN(CCCOc1ccccc1)C(=O)c1csc(-c2nnc[nH]2)n1 : what is it?
## Result 76.91

## Task Reported Percent Effect for O=C(O)C(F)(F)F.O=C(O)C(F)(F)F.c1cc2c(cc1CN1CC[C@H]3CO[C@H](CN4CCCC4)[C@H]3C1)OCO2 : what is it?
## Result 77.9

## Task Reported Percent Effect for CCn1cc(-c2n[nH]c(=O)n2-c2ccc3c(c2)OCO3)c(C)n1 : what is it?
## Result -101.4

## Task Reported Percent Effect for O=C1CCCCCN1Cc1cccc(OC(F)F)c1 : what is it?
## Result -103.2

## Task Reported Percent Effect for Cn1ccc2c(ccn2CC(=O)Nc2ccc(Br)cc2)c1=O : what is it?
## Result -82.23

## Task Reported Percent Effect for COc1ccc(C)cc1NC(=O)Nc1cnc(N2CCCC2)nc1 : what is it?
## Result -31.15
